# study_target: T1, GFP-9S library array, motif 4 ND N98E;D124L (synthetic construct, N98E;D124L)
# T1 chain: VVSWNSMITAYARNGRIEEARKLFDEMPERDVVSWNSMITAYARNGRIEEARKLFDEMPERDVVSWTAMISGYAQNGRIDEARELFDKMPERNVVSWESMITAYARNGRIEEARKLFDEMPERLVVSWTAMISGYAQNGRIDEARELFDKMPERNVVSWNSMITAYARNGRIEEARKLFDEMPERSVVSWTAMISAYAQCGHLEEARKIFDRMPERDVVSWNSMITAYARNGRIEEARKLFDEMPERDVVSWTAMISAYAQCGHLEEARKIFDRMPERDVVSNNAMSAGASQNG
# assay_details: high-throughput RNA pulldown from lysate on Ni-NTA beads; HRP: 50 mM Tris pH 8, 150 mM NaCl, 1 mM beta-mercaptoethanol, 50 ug/ml BSA, 3 ug/ml yeast RNA, 0.5% heparin; ITC and FP: Tris pH 8, 200 mM KCl, 5% glycerol; MST: 50 mM Tris pH 8, 200 mM NaCl, 1 mM DTT, BSA, heparin, 0.05% Tween 20
# assay_conditions: tags: N-terminal His-eGFP; label: 5' IRDye 800CW
Items are presented alongside their recorded Kd.
Respond with the bare value in nM.

Prompt line: Kd lookup needed for AUUAUACGUGA (ssRNA) [IR-rpoA-U] , thanks.
Response line: 196

Turning now to a further record.
Prompt line: Kd lookup needed for AUUAAACGUGA (ssRNA) [IR-rpoA-A] , thanks.
Response line: 147
